# System: MDA-MB-231
# method-notes: Inhibition of cell growth in human MDA-MB-231 cells by MTT assay
# Assay type: functional, cell-based
Could you mark each record 1.0 if its IC50 falls strictly under 20 µM, and 0.0 if it equals or exceeds it?

Example entries and their recorded answers appear below.
C=C1C2=C(C(=O)N1OC)[C@H](O)[C@@](C)(O)[C@H](CCCCC)O2	0.0
C=C1C2=C(C(=O)N1OC)[C@@H](O)[C@@](C)(O)[C@@H](CCCCC)O2	1.0
CCCCC[C@@H]1OC2=C(C(=O)N(OC)C2=O)[C@H](O)[C@@]1(C)O	0.0
O=[N+]([O-])c1ccc2c(c1)S(=O)(=O)C=C2	1.0
C=C1C2=C(C(=O)N1OC)[C@@H](O)[C@](C)(O)[C@@H](CCCCC)O2	1.0

Proceed to the following item.
Consider `C=C1C2=C(C(=O)N1OC)[C@@H](O)[C@@](C)(O)[C@H](CCCCC)O2` . Does its IC50 lie strictly below 20 µM?
0.0

* * *

# test-target: UniProtKB P40763
# Sequence (P40763 whole entry): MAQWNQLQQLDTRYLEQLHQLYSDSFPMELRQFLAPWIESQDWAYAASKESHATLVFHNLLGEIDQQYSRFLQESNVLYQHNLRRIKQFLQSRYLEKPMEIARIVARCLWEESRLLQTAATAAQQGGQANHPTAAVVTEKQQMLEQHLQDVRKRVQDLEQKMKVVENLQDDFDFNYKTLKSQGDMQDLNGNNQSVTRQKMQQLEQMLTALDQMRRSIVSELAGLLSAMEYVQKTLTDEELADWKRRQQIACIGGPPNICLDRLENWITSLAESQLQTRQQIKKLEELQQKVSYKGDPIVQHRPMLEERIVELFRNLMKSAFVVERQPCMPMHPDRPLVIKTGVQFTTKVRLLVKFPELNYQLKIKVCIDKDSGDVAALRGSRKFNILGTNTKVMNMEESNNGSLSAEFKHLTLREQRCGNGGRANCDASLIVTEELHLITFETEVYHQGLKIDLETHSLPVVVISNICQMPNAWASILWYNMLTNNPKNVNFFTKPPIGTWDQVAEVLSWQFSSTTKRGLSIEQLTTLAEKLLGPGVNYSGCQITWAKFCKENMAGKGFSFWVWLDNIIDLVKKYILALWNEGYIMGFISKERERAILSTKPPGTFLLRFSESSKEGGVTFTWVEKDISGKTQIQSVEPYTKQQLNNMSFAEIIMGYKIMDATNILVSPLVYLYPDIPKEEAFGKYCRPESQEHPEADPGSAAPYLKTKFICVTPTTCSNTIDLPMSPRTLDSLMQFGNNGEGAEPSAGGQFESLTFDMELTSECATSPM
# method-notes: Inhibition of IL-6-induced STAT3 phosphorylation at Tyr705 in human HeLa cells by Western blot analysis
measured-quantity: pIC50
Interpret pIC50 as the negative base-10 log of the concentration measured in mol/L.

C=C1C2=C(C(=O)N1OC)[C@H](O)[C@@](C)(O)[C@@H](CCCCC)O2	5.14

Moving on to the next compound.
Would you kindly share the measured pIC50 for `C=C1C2=C(C(=O)N1OC)[C@@H](O)[C@](C)(O)[C@@H](CCCCC)O2` ?
5.18

meta.source: ChEMBL document CHEMBL6074656
